# tested system: Ag hmg AChE (Anopheles gambiae)
# Construct: To prepare the Ag homogenate (Ag hmg) 10 Anopheles gambiae mosquitoes were combined; from tissue; host or cells: whole Anopheles gambiae mosquitoes, crude homogenate supernatant
# assay name: Ellman AChE inhibition assay, Anopheles gambiae homogenate (Ag hmg)
# Type: biochemical
# condition summary: WT Anopheles gambiae homogenate, pH 7.8, 10 min preincubation; read-out: Ag WT hmg IC50
Lab note: anything with IC50 below 700 nM is marked yes (1); values at 700 nM or higher are marked no (0).

Please state whether IC50 is below 700 nM for CNC(=O)Oc1cccc2c1OC(C)(C)C2 [Carbofuran, reference compound]
yes (1)

Please state whether IC50 is below 700 nM for CCCCN(CCCC)SN(C)C(=O)Oc1cccc2c1OC(C)(C)C2 [Carbosulfan, reference compound]
no (0)

Please state whether IC50 is below 700 nM for CNC(=O)O/N=C/C(C)(C)SC [Aldicarb, reference compound]
no (0)

Please state whether IC50 is below 700 nM for CNC(=O)Oc1cccc2c1OC(C)(C)O2 [Bendiocarb, reference compound]
yes (1)

Others:
Please state whether IC50 is below 700 nM for CNC(=O)Oc1cccc2ccccc12 [Carbaryl, reference compound]
yes (1)

###

# tested system: hAChE (Homo sapiens, UniProt P22303)
# Construct: purchased Sigma C1682
# Sequence (P22303 32-614): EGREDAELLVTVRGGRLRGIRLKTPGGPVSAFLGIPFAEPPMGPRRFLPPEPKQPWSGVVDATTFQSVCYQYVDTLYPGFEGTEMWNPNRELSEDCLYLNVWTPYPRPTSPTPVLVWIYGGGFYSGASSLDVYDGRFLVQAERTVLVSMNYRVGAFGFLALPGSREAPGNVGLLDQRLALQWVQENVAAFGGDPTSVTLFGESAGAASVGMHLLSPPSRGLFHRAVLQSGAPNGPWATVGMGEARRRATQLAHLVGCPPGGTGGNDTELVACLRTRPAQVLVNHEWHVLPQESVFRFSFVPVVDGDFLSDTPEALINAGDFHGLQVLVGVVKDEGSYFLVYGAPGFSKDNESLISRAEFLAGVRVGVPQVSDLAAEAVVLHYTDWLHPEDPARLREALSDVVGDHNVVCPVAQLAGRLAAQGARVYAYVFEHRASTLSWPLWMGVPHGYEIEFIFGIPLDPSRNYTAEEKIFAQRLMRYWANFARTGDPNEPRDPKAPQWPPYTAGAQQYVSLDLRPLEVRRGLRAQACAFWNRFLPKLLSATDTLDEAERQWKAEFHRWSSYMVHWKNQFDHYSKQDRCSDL
# assay name: Ellman AChE inhibition assay, recombinant hAChE
# Type: biochemical
What IC50 was measured for each of the following?
One number for each entry, in µM.

# query: IC50 of entry CNC(=O)Oc1cccc(Cl)c1 [Compound 7a]
86

# query: IC50 of entry CC[Si](C)(C)c1cccc(OC(=O)NC)c1 [Compound 3a]
0.285

# query: IC50 of entry CC(C)NC(=O)Oc1cccc(C(C)(C)C)c1 [Compound 1d, N-isopropyl-3-tert-butylphenylcarbamate]
181

# query: IC50 of entry CNC(=O)Oc1ccccc1SCC(C)(C)C [Compound 7b]
13.9

# query: IC50 of entry CNC(=O)Oc1ccccc1SCC1CCCCC1 [Compound 9b]
10.6

Report IC50 for every entry below.
1. CCNC(=O)Oc1cccc(C(C)(C)C)c1 [Compound 1h]
2. CNC(=O)Oc1ccccc1SCC1CCCC1 [Compound 11b]

[2.41, 6.88]

###

# tested system: Ag hmg AChE (Anopheles gambiae, UniProt Q869C3)
# Construct: To prepare the Ag homogenate (Ag hmg) 10 Anopheles gambiae mosquitoes were combined; from tissue; host or cells: whole Anopheles gambiae mosquitoes, crude homogenate supernatant
# Sequence (Q869C3 39-737): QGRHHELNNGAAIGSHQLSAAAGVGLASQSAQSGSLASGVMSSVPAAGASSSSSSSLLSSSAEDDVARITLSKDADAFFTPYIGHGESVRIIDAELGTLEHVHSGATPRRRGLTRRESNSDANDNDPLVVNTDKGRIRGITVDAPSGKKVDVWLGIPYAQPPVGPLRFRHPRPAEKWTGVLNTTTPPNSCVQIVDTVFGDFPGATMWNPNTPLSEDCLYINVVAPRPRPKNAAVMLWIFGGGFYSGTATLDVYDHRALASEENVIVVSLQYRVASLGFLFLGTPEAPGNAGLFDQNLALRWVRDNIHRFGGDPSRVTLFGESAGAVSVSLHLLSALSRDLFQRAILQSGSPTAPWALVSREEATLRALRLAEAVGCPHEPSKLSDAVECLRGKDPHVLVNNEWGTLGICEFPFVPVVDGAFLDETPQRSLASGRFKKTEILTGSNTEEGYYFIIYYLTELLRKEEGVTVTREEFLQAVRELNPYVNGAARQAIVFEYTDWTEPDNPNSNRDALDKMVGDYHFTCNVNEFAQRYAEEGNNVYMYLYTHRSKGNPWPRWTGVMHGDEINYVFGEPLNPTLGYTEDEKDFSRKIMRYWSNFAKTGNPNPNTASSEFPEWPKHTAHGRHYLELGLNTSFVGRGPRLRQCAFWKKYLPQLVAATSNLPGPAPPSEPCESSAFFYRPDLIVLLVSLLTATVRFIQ
# assay name: Ellman AChE inhibition assay, Anopheles gambiae homogenate (Ag hmg)
# Assay type: biochemical
# condition summary: Ag WT hmg IC50, WT Anopheles gambiae homogenate, pH 7.8, 10 min preincubation
Lab note: anything with IC50 below 20 µM is marked Satisfied; values at 20 µM or higher are marked Not satisfied.

Please state whether IC50 is below 20 µM for CCC(CC)C[S+]([O-])c1ccccc1OC(=O)NC (stereo not shown)
Not satisfied

Please state whether IC50 is below 20 µM for CCCCCCNC(=O)Oc1cccc(C(C)(C)C)c1
Not satisfied

Please state whether IC50 is below 20 µM for CNC(=O)Oc1ccccc1OCC1CCCC1 [Compound 12b]
Not satisfied

Others:
Please state whether IC50 is below 20 µM for C=CCSc1ccccc1OC(=O)NC [Compound 16b, 2-(allylthio)phenyl-N-methylcarbamate]
Satisfied

Please state whether IC50 is below 20 µM for CNC(=O)Oc1ccccc1SCc1ccccc1 [Compound 19b, 2-(benzylthio)phenyl-N-methylcarbamate]
Satisfied

Please state whether IC50 is below 20 µM for CNC(=O)Oc1cccc(Br)c1
Not satisfied

###

# tested system: Ag ace-1S (Anopheles gambiae, UniProt Q869C3)
# Construct: encoding the entire wild type AgAChE protein (ace1, 737 amino acids); made in house; host or cells: Drosophila S2 cells (stably transfected, pMT/V5-His vector), clarified cell lysate
# Sequence (Q869C3 39-737): as above
# assay name: biochemical
What IC50 was measured for each of the following?
Give bare numbers, in nM.

Consider the following illustrative entries.
# query: IC50 of entry CNC(=O)Oc1cc(C)cc(C)c1 [Compound 10a]
1040

# query: IC50 of entry CNC(=O)ON=C(C)SC [Methomyl, reference compound]
1760

# query: IC50 of entry CNC(=O)Oc1cccc(Br)c1 [Compound 8a]
7610

# query: IC50 of entry CNC(=O)Oc1cc(C(C)(C)C)cc(C(C)(C)C)c1 [Compound 11a]
2470

# query: IC50 of entry CNC(=O)Oc1cccc2c1OC(C)(C)C2 [Carbofuran, reference compound]
49

Report IC50 for every entry below.
1. CCCCN(CCCC)SN(C)C(=O)Oc1cccc2c1OC(C)(C)C2 [Carbosulfan, reference compound]
2. C/C=C/CSc1ccccc1OC(=O)NC [Compound 17b]

[10800, 68]

###

# tested system: hAChE (Homo sapiens)
# Construct: purchased Sigma C1682
# assay name: Ellman AChE inhibition assay, recombinant hAChE
# Type: biochemical
assay metric: pIC50
Answers are plain numbers, as −log10 of the molar value.

Lab request: please report pIC50 under test system hAChE (Homo sapiens) for CCC(CC)C[S+]([O-])c1ccccc1OC(=O)NC (centres unmarked)
4.26

Lab request: please report pIC50 under test system hAChE (Homo sapiens) for CNC(=O)Oc1cccc(I)c1
4.17

Report pIC50 for every entry below.
1. C=C(C)CSc1ccccc1OC(=O)NC
2. CNC(=O)Oc1cccc(C(C)(C)C)c1 [Compound 1a, 3-tert-butylphenyl-N-methyl carbamate]

5.02
6.58

###

# tested system: Ag hmg AChE (Anopheles gambiae, UniProt Q869C3)
# Construct: To prepare the Ag homogenate (Ag hmg) 10 Anopheles gambiae mosquitoes were combined; from tissue; host or cells: whole Anopheles gambiae mosquitoes, crude homogenate supernatant
# assay name: Ellman AChE inhibition assay, Anopheles gambiae homogenate (Ag hmg)
# Type: biochemical
# condition summary: Ag WT hmg IC50, WT Anopheles gambiae homogenate, pH 7.8, 10 min preincubation
Lab note: anything with IC50 below 2000 nM is marked condition met; values at 2000 nM or higher are marked condition not met.

Please state whether IC50 is below 2000 nM for C#CCNC(=O)Oc1cccc(C(C)(C)C)c1 [Compound 1e, N-propargyl 3-t-butylphenyl carbamate]
condition met

Others:
Please state whether IC50 is below 2000 nM for CC(C)(C)c1cccc(OC(=O)NCc2cn(Cc3ccccc3)nn2)c1 [Compound 1f]
condition not met

Please state whether IC50 is below 2000 nM for C=C(Br)CSc1ccccc1OC(=O)NC [Compound 15b]
condition met

Please state whether IC50 is below 2000 nM for CCC(CC)CSc1ccccc1OC(=O)NC [Compound 1b]
condition met

Please state whether IC50 is below 2000 nM for CN(C)C(=O)Oc1cccc(C(C)(C)C)c1 [Compound 1g]
condition not met

Please state whether IC50 is below 2000 nM for CNC(=O)Oc1ccccc1C(C)(C)C [Compound 23b, 2-tert-butylphenyl methylcarbamate]
condition not met

Please state whether IC50 is below 2000 nM for CC[Si](C)(C)c1cccc(OC(=O)NC)c1 [Compound 3a]
condition met

Please state whether IC50 is below 2000 nM for CNC(=O)Oc1ccccc1OC(C)C [Propoxur, reference compound]
condition met

###

# tested system: Ag hmg AChE (Anopheles gambiae, UniProt Q869C3)
# Construct: To prepare the Ag homogenate (Ag hmg) 10 Anopheles gambiae mosquitoes were combined; from tissue; host or cells: whole Anopheles gambiae mosquitoes, crude homogenate supernatant
# assay name: Ellman AChE inhibition assay, Anopheles gambiae homogenate (Ag hmg)
# Assay type: biochemical
# condition summary: selectivity, values in parenthesis
assay metric: IC50 ratio (hAChE/Ag hmg)

# query: IC50 ratio (hAChE/Ag hmg) of entry CNC(=O)Oc1cccc([Si](C)(C)C)c1
(95x)

# query: IC50 ratio (hAChE/Ag hmg) of entry CNC(=O)Oc1cccc(I)c1
(13x)

###

What IC50 was measured for each of the following?
# tested system: Ag hmg AChE (Anopheles gambiae, UniProt Q869C3)
# Construct: To prepare the Ag homogenate (Ag hmg) 10 Anopheles gambiae mosquitoes were combined; from tissue; host or cells: whole Anopheles gambiae mosquitoes, crude homogenate supernatant
# assay name: Ellman AChE inhibition assay, Anopheles gambiae homogenate (Ag hmg)
# Type: biochemical
# condition summary: Ag WT hmg IC50, WT Anopheles gambiae homogenate, pH 7.8, 10 min preincubation
One number for each entry, in nM.

Report IC50 for every entry below.
1. CNC(=O)Oc1cccc(C(C)C)c1
2. CCNC(=O)Oc1cccc(C(C)(C)C)c1
3. CNC(=O)Oc1cc(C)cc(C)c1 [Compound 10a]
4. CNC(=O)Oc1ccccc1SC(C)C
5. CNC(=O)Oc1cccc(-c2ccccc2)c1
6. CNC(=O)Oc1cc(C(C)(C)C)cc(C(C)(C)C)c1 [Compound 11a]
7. C=C(C)CSc1ccccc1OC(=O)NCC
8. C=C(C)CSc1ccccc1OC(=O)NC

27
4000
2780
33
18400
5320
13000
124

Report IC50 for every entry below.
1. CNC(=O)Oc1cccc(-c2cn(Cc3ccccc3)nn2)c1 [Compound 13a]
2. CNC(=O)Oc1ccccc1SCC=C(C)C [Compound 18b]

336000
1180

Report IC50 for every entry below.
1. CNC(=O)Oc1cccc(Cl)c1
2. CCC(C)CSc1ccccc1OC(=O)NC (stereo not drawn)

1: 26000; 2: 30
